Please go through the items and note down their pIC50.
SYSTEM TESTED: H1047R PIK3CA enzyme (Homo sapiens, UniProt P42336, H1047R)
Sequence (P42336 whole entry H1047R): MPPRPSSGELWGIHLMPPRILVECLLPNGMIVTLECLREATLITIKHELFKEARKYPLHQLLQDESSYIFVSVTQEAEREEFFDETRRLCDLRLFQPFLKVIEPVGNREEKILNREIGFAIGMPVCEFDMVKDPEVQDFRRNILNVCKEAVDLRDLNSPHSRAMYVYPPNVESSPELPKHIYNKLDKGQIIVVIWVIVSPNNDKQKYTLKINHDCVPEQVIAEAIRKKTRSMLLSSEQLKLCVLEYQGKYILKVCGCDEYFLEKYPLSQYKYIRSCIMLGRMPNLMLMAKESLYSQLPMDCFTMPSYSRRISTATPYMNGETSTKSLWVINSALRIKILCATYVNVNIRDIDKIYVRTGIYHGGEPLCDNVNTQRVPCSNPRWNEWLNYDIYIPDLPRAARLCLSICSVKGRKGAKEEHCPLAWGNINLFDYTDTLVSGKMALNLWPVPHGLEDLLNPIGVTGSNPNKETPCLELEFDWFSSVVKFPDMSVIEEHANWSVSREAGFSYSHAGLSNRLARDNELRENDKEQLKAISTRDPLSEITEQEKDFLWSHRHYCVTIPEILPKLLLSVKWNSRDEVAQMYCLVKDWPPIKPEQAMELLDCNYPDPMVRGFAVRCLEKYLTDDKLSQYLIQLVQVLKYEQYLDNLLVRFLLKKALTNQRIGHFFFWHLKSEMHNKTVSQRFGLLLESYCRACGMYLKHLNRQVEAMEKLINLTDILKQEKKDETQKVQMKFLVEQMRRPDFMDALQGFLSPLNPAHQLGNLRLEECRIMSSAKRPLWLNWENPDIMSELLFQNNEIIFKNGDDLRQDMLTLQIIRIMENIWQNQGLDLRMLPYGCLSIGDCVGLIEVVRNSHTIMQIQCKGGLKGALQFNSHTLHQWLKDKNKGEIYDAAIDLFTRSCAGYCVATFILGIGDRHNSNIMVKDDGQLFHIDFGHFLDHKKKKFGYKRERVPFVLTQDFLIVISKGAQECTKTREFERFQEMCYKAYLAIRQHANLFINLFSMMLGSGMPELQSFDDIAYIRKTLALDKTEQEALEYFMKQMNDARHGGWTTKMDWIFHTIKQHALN
Sequence (P27986 whole entry partner): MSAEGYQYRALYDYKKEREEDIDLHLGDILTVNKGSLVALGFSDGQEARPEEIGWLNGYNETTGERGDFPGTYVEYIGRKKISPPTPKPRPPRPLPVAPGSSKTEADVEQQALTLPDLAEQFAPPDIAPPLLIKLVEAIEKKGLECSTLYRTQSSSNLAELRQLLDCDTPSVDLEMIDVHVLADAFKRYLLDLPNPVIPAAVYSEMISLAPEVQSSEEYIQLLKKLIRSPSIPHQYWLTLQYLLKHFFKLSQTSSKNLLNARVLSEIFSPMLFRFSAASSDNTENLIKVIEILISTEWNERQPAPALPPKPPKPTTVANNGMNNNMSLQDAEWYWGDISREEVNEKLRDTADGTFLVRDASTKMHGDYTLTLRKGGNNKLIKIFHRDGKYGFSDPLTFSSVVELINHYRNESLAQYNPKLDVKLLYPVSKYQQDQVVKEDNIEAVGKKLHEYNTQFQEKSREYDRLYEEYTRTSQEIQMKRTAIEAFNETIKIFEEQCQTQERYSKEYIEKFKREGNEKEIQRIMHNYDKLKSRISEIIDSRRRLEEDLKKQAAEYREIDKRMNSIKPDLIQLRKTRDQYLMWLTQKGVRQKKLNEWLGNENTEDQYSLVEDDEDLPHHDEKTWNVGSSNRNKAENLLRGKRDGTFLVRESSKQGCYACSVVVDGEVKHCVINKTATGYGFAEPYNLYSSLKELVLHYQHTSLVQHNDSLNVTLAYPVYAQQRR
PROTOCOL DETAILS: ADP-Glo Biochemical PIK3CA Kinase Assay
pIC50: −log10 of the molar value.

Some solved cases for reference:
1. N#Cc1cn(-c2cc(NC(=O)c3cc(F)cc(C(F)(F)F)c3)c3c(c2)C(=O)NC3c2cc(F)ccc2Cl)cn1 (stereo not drawn)	≥ 7.00
2. O=C(Nc1cc(-c2cc(F)c3ncnn3c2)cc2c1C(c1cc(F)ccc1Cl)NC2=O)c1cc(F)cc(C(F)(F)F)c1 (stereo not drawn)	≥ 7.00
3. O=C1N[C@@H](c2cc(F)ccc2Cl)c2c(NC(=O)N3C[C@@](O)(C(F)(F)F)c4cc(F)ccc43)ccc(-n3ccnn3)c21 (single isomer, unassigned)	5.00 to 6.00
4. O=C1NC(c2cc(F)ccc2Cl)c2c(NC(=O)c3cccn4ccnc34)cc(Br)cc21 (stereo not drawn)	4.00 to 5.00
5. N#Cc1cnc2c(F)cc(-c3cc(NC(=O)c4cc(F)cc(C(F)(F)F)c4)c4c(c3)C(=O)N[C@@H]4c3cc(F)ccc3Cl)cn12	6.00 to 6.30

Below are 4 compounds. Give each one its pIC50.
1. O=C1NC(c2cc(F)ccc2Cl)c2c(NC(=O)C3CCCO3)cc(-c3ccc4ncnn4c3)cc21 (stereo not drawn)
2. O=C(CC1(C(F)(F)F)CC1)Nc1cc(-c2ccc3ncnn3c2)cc2c1C(c1cc(F)ccc1Cl)NC2=O (stereo not drawn)
3. O=C(Nc1ccnc2c1C(c1ccccc1Cl)NC2=O)c1cc(F)cc(C(F)(F)F)c1 (stereo not drawn)
4. O=C(Nc1cccc2c1C(C1=CCCCC1)NC2=O)c1cc(F)cc(C(F)(F)F)c1 (stereo not drawn)

1: 4.00 to 5.00; 2: 5.00 to 6.00; 3: 6.00 to 6.30; 4: 5.00 to 6.00

* * *

Provide the recorded IC50 for the entries that follow.
SYSTEM TESTED: H1047R PIK3CA enzyme (Homo sapiens, UniProt P42336, H1047R)
PROTOCOL DETAILS: ADP-Glo Biochemical PIK3CA Kinase Assay

Observe how each entry below is paired with its result.
1) NC(=O)c1cnccc1-c1cc(NC(=O)c2cc(F)cc(C(F)(F)F)c2)c2c(c1)C(=O)NC2c1cc(F)ccc1Cl (stereo not shown)	100 to 500 nM
2) O=C(Nc1cc(-c2cnc3nccn3c2)cc2c1[C@H](c1cc(F)ccc1Cl)NC2=O)c1cc(F)cc(C(F)(F)F)c1	≤ 100 nM
3) O=C(Nc1cc(NCCO)cc2c1C(c1cc(F)ccc1Cl)NC2=O)c1cc(F)cc(C(F)(F)F)c1 (stereo not shown)	≤ 100 nM

# input for lookup
For H1047R PIK3CA enzyme (Homo sapiens, UniProt P42336, H1047R), give IC50 of the listed compound: C=Cc1cc(NC(=O)c2csc3ccccc23)c2c(c1)C(=O)NC2c1ccccc1C (stereo not shown)
≤ 100 nM

* * *

SYSTEM TESTED: H1047R PIK3CA enzyme (Homo sapiens, UniProt P42336, H1047R)
PROTOCOL DETAILS: ADP-Glo Biochemical PIK3CA Kinase Assay
pIC50: −log10 of the molar value.
MEASURE NAME: pIC50

Some solved cases for reference:
1. Nc1cc(NC(=O)N2C[C@@H](O)c3cc(F)ccc32)c2c(c1)C(=O)N[C@H]2c1cc(F)ccc1Cl (single isomer, unassigned)	≥ 7.00
2. CNC(=O)c1cc(NC(=O)c2cc(F)cc(C(F)(F)F)c2)c2c(c1)C(=O)N[C@@H]2c1ccccc1C	4.00 to 5.00
3. COCc1cc(NC(=O)c2cc(F)cc(C(F)(F)F)c2)c2c(c1)C(=O)N[C@@H]2c1cc(F)ccc1Cl	6.30 to 7.00
4. O=C(Nc1cccc2c1[C@@H](NC1CCCC1)NC2=O)c1cc(F)cc(C(F)(F)F)c1 (single isomer, unassigned)	4.00 to 5.00
5. O=C1N[C@H](c2cc(F)ccc2Cl)c2c(NC(=O)N3C[C@@](O)(C(F)F)c4ccccc43)cccc21 (single isomer, unassigned)	4.00 to 5.00

For the next question, use this compound.
Give the reported value of pIC50 for this record: CC(C)(CNC(=O)Nc1cc(Br)cc2c1C(c1cc(F)ccc1Cl)NC2=O)C1(O)CCC1 (stereo not drawn)
4.00 to 5.00

* * *

I'd appreciate it if you could supply IC50 values for the items below.
SYSTEM TESTED: H1047R PIK3CA enzyme (Homo sapiens, UniProt P42336, H1047R)
PROTOCOL DETAILS: ADP-Glo Biochemical PIK3CA Kinase Assay

Some solved cases for reference:
1. O=C(Nc1cc(-c2cnc3ocnc3c2)cc2c1C(c1cc(F)ccc1Cl)NC2=O)c1cc(F)cc(C(F)(F)F)c1 (centres unmarked)	≤ 100 nM
2. N#CC(C(=O)Nc1cc(-c2ccc3ncnn3c2)cc2c1C(c1cc(F)ccc1Cl)NC2=O)c1ccccc1 (centres unmarked)	1000 to 10000 nM
3. O=C1NC(c2cc(F)ccc2Cl)c2c(NC(=O)C3OCCc4ccccc43)cc(-c3ccc4ncnn4c3)cc21 (centres unmarked)	1000 to 10000 nM

Return reported IC50 values for all items listed beneath this line.
1. O=C(Nc1cc(N[C@H]2C[C@H](F)C2)cc2c1C(c1cc(F)ccc1Cl)NC2=O)c1cc(F)cc(C(F)(F)F)c1 (single isomer, unassigned)
2. O=C(Nc1cccc2c1[C@@H](C1CCC(F)(F)CC1)NC2=O)c1cc(F)cc(C(F)(F)F)c1
3. N#Cc1ccc2c(c1)N(C(=O)Nc1cccc3c1C(c1cc(F)ccc1Cl)NC3=O)CC2 (centres unmarked)
4. COc1ccc2c(C(=O)Nc3cccc4c3C(c3ccccc3C)NC4=O)csc2c1 (centres unmarked)
5. O=C(Nc1cccc2c1C(C1NC3CCC1C3)NC2=O)c1cc(F)cc(C(F)(F)F)c1 (centres unmarked)
6. O=C(Nc1cc(OCCO)cc2c1C(c1cc(F)ccc1Cl)NC2=O)c1cc(F)cc(C(F)(F)F)c1 (centres unmarked)

1. ≤ 100 nM
2. 10000 to 100000 nM
3. 1000 to 10000 nM
4. 10000 to 100000 nM
5. 10000 to 100000 nM
6. ≤ 100 nM

* * *

Please provide measured pIC50 for the entries that follow.
SYSTEM TESTED: H1047R PIK3CA enzyme (Homo sapiens, UniProt P42336, H1047R)
PROTOCOL DETAILS: ADP-Glo Biochemical PIK3CA Kinase Assay
pIC50: −log10 of the molar value.

Observe how each entry below is paired with its result.
1) Cn1cc(-c2ccc(Cl)c(C3NC(=O)c4cccc(NC(=O)c5cc(F)cc(C(F)(F)F)c5)c43)c2)cn1 (centres unmarked)	4.00 to 5.00
2) O=C(Nc1cc(-c2ccncc2F)cc2c1[C@H](c1cc(F)ccc1Cl)NC2=O)c1cc(F)cc(C(F)(F)F)c1 (stereo in doubt)	5.00 to 6.00
3) O=C(Nc1cc(Br)cc2c1[C@@H](c1cc(F)ccc1Cl)NC2=O)c1cc(F)cc(C(F)(F)F)c1	5.00 to 6.00

Dear colleague, could you send me pIC50 for each of the items below? Thanks.
1. O=C(Nc1cccc(C(F)(F)F)c1)c1cccc2c1C(c1cc(F)ccc1Cl)NC2=O (centres unmarked)
2. CC(=O)Nc1cc(NC(=O)c2cc(F)cc(C(F)(F)F)c2)c2c(c1)C(=O)N[C@@H]2c1cc(F)ccc1Cl
3. O=C1NC(c2cc(F)ccc2Cl)c2c(C#Cc3cc(F)cc(C(F)(F)F)c3)cccc21 (centres unmarked)

1: 5.00 to 6.00; 2: 5.00 to 6.00; 3: 4.00 to 5.00

Give measured pIC50 for every item shown.
1. O=C(Nc1cc(Br)cc2c1C(c1cc(F)ccc1Cl)NC2=O)c1cc2ccccc2[nH]1 (centres unmarked)
2. O=C1N[C@@H](c2cc(F)ccc2Cl)c2c(NC(=O)N3C[C@H](O)c4ccccc43)cc(-c3ccc4ncnn4c3)cc21 (single isomer, unassigned)
3. O=C1N[C@@H](c2cc(F)ccc2Cl)c2c(NC(=O)N3C[C@@H](O)c4cc(F)ccc43)cc(-n3ccccc3=O)cc21 (single isomer, unassigned)
4. Cc1ccccc1C1NC(=O)c2cccc(NC(=O)c3cc(Br)sn3)c21 (centres unmarked)
5. O=C(Nc1cc(-c2cnn(-c3cnccn3)c2)cc2c1C(c1cc(F)ccc1Cl)NC2=O)c1cc(F)cc(C(F)(F)F)c1 (centres unmarked)
6. CC1(Cc2cc(NC(=O)N3CC(O)c4cc(F)ccc43)c3c(c2)C(=O)NC3c2cc(F)ccc2Cl)COC1 (centres unmarked)
7. O=C1N[C@H](c2cc(F)ccc2Cl)c2c(NC(=O)N3C[C@@](O)(C(F)(F)F)c4cc(F)ccc43)ccc(-n3ccnn3)c21 (single isomer, unassigned)
8. O=C(Nc1cccc2c1[C@@H](C1CCCCC1)NC2=O)c1cc(F)cc(C(F)(F)F)c1

1: 5.00 to 6.00; 2: 6.30 to 7.00; 3: 6.30 to 7.00; 4: 4.00 to 5.00; 5: ≥ 7.00; 6: 6.00 to 6.30; 7: 5.00 to 6.00; 8: 4.00 to 5.00
